# Read-out: Matrix Metallopeptidase 1 (MMP1), MMP1 (gene 4312)
# test-protocol: BSK_MyoF_MMP1: BioMAP Diversity Plus: MyoF Assay for Matrix Metallopeptidase 1 (MMP1) Biomarker Activity (AID 2284268)
# assay-conditions: primary human lung fibroblasts
The source made the active and inactive calls. How the source made its calls: active means hit-call score of the fitted dose curve at least 0.9, where 1 is the maximum; inactive means score below 0.9.
recorded-metric: AC50

C1=CC2C3C=CC(C3)C2C1 (centres undefined): inactive
CN(c1nccc(=O)[nH]1)C1CCN(c2nc3ccccc3n2Cc2ccc(F)cc2)CC1: inactive
c1ccc2cc(Nc3ccc(Nc4ccc5ccccc5c4)cc3)ccc2c1: inactive
c1ccc(Oc2ccccc2)cc1: inactive
O=C1c2ccccc2C(=O)c2c(O)ccc(O)c21: 3.25 µM (active)

Input line: Request the reported AC50 associated with `CSCCC=O`
Output line: inactive

Input line: What do you get for `IC(I)I` ?
Output line: inactive

Input line: What do you get for `CN(C)C(=O)Nc1ccc(Oc2ccc(Cl)cc2)cc1` ?
Output line: inactive

Input line: What do you get for `CCCCCCCCCCCCCCCC(=O)OC/C=C(C)/C=C/C=C(C)/C=C/C1=C(C)CCCC1(C)C` ?
Output line: inactive
